Test system: male mice
experimental_protocol: Determination of the Minimal Toxic Dose (oral, mice)
Type: in vivo
condition_set: mouse, p.o.; observed 3 h, symptoms and deaths over 24 h
Experimental: 1. Determination of the Minimal Toxic Dose. Maximum doses of 300 mg/kg of the test compound are administered orally to three male mice having a weight of 20-25 g and toxicity symptoms are carefully observed for a period of three hours. Furthermore, over a period of 24 hours from the administration all symptoms and deaths are registered. Side-symptoms are also observed and registered. […]
experimental_readout: MDL (minimal toxic dose)

INSERT INTO assay_data (molecule, experimental_readout, data_value) VALUES
  ('COc1ccc2c(c1)N(C)C(CNC(=O)c1ccoc1)CN=C2c1ccccc1 (stereo not drawn)', 'MDL (minimal toxic dose)', '> 50 mg/kg'),
  ('COc1ccc2c(c1)N(C)C(CNC(=O)c1ccco1)CN=C2c1ccccc1 (stereo not drawn)', 'MDL (minimal toxic dose)', '> 200 mg/kg'),
  ('CN1c2ccccc2C(c2ccccc2)=NCC1CNC(=O)c1cccs1 (stereo not drawn)', 'MDL (minimal toxic dose)', '> 300 mg/kg'),
  ('Cc1ccc(C(=O)NCC2CN=C(c3ccccc3)c3ccccc3N2C)s1 (stereo not drawn)', 'MDL (minimal toxic dose)', '> 300 mg/kg'),
  ('COc1ccc2c(c1)N(C)C(CNC(=O)c1ccsc1)CN=C2c1ccccc1 (stereo not drawn)', 'MDL (minimal toxic dose)', '> 200 mg/kg'),
  ('CN1c2ccccc2C(c2ccccc2)=NCC1CNC(=O)c1ccsc1 (stereo not drawn)', 'MDL (minimal toxic dose)', '> 200 mg/kg'),
  ('CN1c2ccccc2C(c2ccccc2F)=NCC1CNC(=O)c1ccco1 (stereo not drawn)', 'MDL (minimal toxic dose)', '> 300 mg/kg'),
  ('Cc1cc2c(cc1C)N(C)C(CNC(=O)c1ccoc1)CN=C2c1ccccc1 (stereo not drawn)', 'MDL (minimal toxic dose)', '> 200 mg/kg'),
  ('COc1cccc(C2=NCC(CNC(=O)c3ccco3)N(C)c3ccccc32)c1 (stereo not drawn)', 'MDL (minimal toxic dose)', '> 300 mg/kg'),
  ('CCN1c2ccccc2C(c2ccccc2)=NCC1CNC(=O)c1ccoc1 (stereo not drawn)', 'MDL (minimal toxic dose)', '> 200 mg/kg'),
  ('COc1ccc2c(c1)N(C)C(CNC(=O)c1cccs1)CN=C2c1ccccc1 (stereo not drawn)', 'MDL (minimal toxic dose)', '> 200 mg/kg'),
  ('CN1c2ccccc2C(c2ccccc2F)=NCC1CNC(=O)c1ccoc1 (stereo not drawn)', 'MDL (minimal toxic dose)', '> 300 mg/kg'),
  ('CCOc1ccc2c(c1)N(C)C(CNC(=O)c1ccoc1)CN=C2c1ccccc1 (stereo not drawn)', 'MDL (minimal toxic dose)', '> 200 mg/kg'),
  ('COc1ccc2c(c1)C(c1ccccc1)=NCC(CNC(=O)c1ccoc1)N2C (stereo not drawn)', 'MDL (minimal toxic dose)', '> 300 mg/kg'),
  ('Cc1ccc2c(c1)C(c1ccccc1)=NCC(CNC(=O)c1ccoc1)N2C (stereo not drawn)', 'MDL (minimal toxic dose)', '> 300 mg/kg'),
  ('CN1c2ccccc2C(c2ccccc2F)=NCC1CNC(=O)c1ccsc1 (stereo not drawn)', 'MDL (minimal toxic dose)', '> 300 mg/kg'),
  ('CN1c2ccccc2C(c2ccccc2F)=NCC1CNC(=O)c1cccs1 (stereo not drawn)', 'MDL (minimal toxic dose)', '> 300 mg/kg'),
  ('CN1c2ccccc2C(c2ccccc2)=NCC1CNC(=O)c1ccco1 (stereo not drawn)', 'MDL (minimal toxic dose)', '> 300 mg/kg'),
  ('COc1cccc(C2=NCC(CNC(=O)c3ccsc3)N(C)c3ccccc32)c1 (stereo not drawn)', 'MDL (minimal toxic dose)', '> 300 mg/kg'),
  ('Cc1ccc2c(c1)C(c1ccccc1)=NCC(CNC(=O)c1ccsc1)N2C (stereo not drawn)', 'MDL (minimal toxic dose)', '> 300 mg/kg'),
  ('COc1ccc2c(c1)N(C)C(CNC(=O)c1ccc(C)s1)CN=C2c1ccccc1 (stereo not drawn)', 'MDL (minimal toxic dose)', '> 200 mg/kg');
